TARGET_UNDER_TEST: CRBN/DDB1 (Homo sapiens)
Sequence (Q96SW2 whole entry, species assumed): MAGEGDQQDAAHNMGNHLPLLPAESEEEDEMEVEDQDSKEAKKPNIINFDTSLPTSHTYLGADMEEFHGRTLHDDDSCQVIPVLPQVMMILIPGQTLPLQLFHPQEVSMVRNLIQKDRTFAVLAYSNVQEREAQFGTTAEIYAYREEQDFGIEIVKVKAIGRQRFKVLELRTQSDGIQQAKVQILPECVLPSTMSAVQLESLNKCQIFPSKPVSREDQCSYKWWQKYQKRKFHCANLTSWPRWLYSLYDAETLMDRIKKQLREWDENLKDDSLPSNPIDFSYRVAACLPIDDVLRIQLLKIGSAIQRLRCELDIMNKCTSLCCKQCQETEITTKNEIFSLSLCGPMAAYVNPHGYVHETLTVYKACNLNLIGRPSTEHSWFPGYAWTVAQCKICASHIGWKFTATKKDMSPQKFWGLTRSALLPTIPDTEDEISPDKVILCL
Sequence (Q16531 whole entry partner, species assumed): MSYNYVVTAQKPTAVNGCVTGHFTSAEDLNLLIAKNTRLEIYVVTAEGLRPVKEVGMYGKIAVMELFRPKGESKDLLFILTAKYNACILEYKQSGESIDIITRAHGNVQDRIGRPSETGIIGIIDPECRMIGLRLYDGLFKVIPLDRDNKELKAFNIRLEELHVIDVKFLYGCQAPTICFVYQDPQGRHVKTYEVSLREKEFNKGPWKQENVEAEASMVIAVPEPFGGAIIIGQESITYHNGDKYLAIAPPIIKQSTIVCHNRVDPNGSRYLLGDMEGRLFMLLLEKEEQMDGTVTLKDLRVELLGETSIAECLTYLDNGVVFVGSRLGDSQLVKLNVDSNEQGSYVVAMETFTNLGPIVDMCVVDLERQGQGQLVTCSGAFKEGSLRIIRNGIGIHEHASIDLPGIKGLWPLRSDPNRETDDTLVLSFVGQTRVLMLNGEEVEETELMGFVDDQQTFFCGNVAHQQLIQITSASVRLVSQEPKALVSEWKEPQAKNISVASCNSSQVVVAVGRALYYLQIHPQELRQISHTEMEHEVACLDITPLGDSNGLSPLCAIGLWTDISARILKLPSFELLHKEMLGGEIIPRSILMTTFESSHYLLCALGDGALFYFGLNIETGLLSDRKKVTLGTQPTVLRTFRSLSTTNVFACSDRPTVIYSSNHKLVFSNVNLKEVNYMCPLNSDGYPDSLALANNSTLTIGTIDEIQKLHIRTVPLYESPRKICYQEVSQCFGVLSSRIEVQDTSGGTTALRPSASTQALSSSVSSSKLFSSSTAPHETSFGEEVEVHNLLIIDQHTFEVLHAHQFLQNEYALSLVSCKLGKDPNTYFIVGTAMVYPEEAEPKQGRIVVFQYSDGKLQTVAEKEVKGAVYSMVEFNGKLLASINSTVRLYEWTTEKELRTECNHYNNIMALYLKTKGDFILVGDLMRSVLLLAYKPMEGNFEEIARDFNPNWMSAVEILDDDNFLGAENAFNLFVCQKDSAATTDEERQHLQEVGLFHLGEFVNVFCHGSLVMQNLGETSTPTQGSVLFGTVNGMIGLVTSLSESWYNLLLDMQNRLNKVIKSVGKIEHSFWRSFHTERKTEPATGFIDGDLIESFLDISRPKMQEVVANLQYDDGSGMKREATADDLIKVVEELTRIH
PROTOCOL_DETAILS: HTRF binding assay (displacement of Cy5-thalidomide probe from CRBN/DDB1)
EXPERIMENTAL_CONDITIONS: CRBN/DDB1 2.5 nM, Cy5-Thalidomide 100 nM, 30 min; geometric mean; read-out: HTRF_Thali_Disp_DR_geo_IC50
pIC50: −log10 of the molar value.
Here, each record is paired with measured pIC50 data.

O=C1CCC(N2Cc3cc(NC(=O)N4CCc5c(C6CC6)cccc54)ccc3C2=O)C(=O)N1 (stereo not shown)	6.00 to 7.00
O=C1CCC(N2Cc3cc(NC(=O)N4CCc5cc(C(F)(F)F)ccc54)ccc3C2=O)C(=O)N1 (stereo not shown)	6.00 to 7.00
O=C1CCC(N2Cc3cc(NC(=O)N4c5ccc(F)cc5CC45COC5)ccc3C2=O)C(=O)N1 (stereo not shown)	6.00 to 7.00

In the following, a different compound is considered.
Recall the recorded pIC50 for O=C1CCC(N2Cc3cc(NC(=O)N4CCc5cc(C6CCC6)ccc54)ccc3C2=O)C(=O)N1 (stereo not shown) with CRBN/DDB1 (Homo sapiens) and state it.
< 6.00

----------
PROTOCOL_DETAILS: Oral pharmacokinetics in male BALB/c mice
Format: in vivo
EXPERIMENTAL_CONDITIONS: mouse, PO 5 mg/kg (cassette dose), plasma, mean ± SD
READOUT_KIND: half-life

I'd like to know its half-life. The compound in question is COC[C@H]1Cc2c(F)cccc2N1C(=O)Nc1ccc2c(c1)CN(C1CCC(=O)NC1=O)C2=O (stereo partly shown) [Compound 303]
1.51 h

----------
TARGET_UNDER_TEST: CK1α (Homo sapiens, UniProt P48729)
Construct: HEK293 clonal lines with CRISPR KI HiBiT tag on CSNK1A1
Sequence (P48729 whole entry): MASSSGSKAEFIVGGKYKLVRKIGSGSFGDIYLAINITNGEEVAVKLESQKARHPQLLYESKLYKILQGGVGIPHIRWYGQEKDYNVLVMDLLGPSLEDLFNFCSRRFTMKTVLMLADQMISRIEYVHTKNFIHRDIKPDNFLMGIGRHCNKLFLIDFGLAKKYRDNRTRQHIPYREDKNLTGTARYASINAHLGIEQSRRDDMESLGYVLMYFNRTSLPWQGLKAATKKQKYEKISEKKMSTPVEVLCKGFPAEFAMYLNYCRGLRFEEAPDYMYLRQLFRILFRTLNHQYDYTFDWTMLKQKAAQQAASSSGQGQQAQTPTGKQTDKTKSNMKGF
Sequence (Q96SW2 whole entry, further chain): as the sequence (Q96SW2 whole entry, species assumed) above
Sequence (Q16531 2-1140 partner limits assumed): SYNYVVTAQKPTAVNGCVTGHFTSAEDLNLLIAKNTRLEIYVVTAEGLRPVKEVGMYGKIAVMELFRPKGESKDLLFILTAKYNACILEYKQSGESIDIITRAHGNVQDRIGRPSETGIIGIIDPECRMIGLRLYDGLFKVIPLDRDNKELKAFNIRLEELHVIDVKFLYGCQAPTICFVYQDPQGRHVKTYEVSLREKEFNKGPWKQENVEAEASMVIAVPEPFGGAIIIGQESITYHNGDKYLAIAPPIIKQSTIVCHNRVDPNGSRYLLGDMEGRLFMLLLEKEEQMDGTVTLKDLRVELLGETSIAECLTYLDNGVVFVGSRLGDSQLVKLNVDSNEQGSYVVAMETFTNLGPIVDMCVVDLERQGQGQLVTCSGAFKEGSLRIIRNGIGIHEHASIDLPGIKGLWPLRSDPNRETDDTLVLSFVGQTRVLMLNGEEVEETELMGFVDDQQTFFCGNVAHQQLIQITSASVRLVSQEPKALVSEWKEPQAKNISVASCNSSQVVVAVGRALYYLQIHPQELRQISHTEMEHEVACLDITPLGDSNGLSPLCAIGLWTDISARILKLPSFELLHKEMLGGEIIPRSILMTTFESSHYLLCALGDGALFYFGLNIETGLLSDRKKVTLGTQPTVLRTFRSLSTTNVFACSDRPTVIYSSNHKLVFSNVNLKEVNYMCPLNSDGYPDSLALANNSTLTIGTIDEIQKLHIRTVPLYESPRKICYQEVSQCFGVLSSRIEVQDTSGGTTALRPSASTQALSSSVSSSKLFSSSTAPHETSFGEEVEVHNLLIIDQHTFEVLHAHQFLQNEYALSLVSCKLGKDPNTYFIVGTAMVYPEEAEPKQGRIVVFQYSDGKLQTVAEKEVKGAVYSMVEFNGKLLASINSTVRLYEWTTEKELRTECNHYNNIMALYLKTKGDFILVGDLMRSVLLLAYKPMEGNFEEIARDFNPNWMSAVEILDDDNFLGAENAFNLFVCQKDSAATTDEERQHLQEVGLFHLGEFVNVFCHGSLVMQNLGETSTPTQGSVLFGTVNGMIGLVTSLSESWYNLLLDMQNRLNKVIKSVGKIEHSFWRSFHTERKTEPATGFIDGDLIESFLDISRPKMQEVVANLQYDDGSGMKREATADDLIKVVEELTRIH
PROTOCOL_DETAILS: CK1α NanoBit Assay (HiBiT-tagged CSNK1A1, HEK293 clonal lines)
Format: cell-based
EXPERIMENTAL_CONDITIONS: HEK293 HiBiT-CSNK1A1/LgBiT cells, 24 h incubation
READOUT_KIND: DC50

Some entries whose results are on file:
O=C1CCC(N2Cc3cc(NC(=O)N4CCCc5ccc(C(F)F)cc54)ccc3C2=O)C(=O)N1 (stereo not shown)	< 0.1 µM
O=C1CCC(N2Cc3cc(NC(=O)N4CCc5c4cccc5C(F)(F)F)ccc3C2=O)C(=O)N1 (stereo not shown)	< 0.1 µM
COCc1cccc2c1CCN2C(=O)Nc1ccc2c(c1)CN(C1CCC(=O)NC1=O)C2=O (stereo not shown)	< 0.1 µM
O=C1CCC(N2Cc3cc(NC(=O)N4CCc5ccc(-c6ccccc6)cc5C4)ccc3C2=O)C(=O)N1 (stereo not shown)	< 0.1 µM
Cc1cc2c(cn1)CCN2C(=O)Nc1ccc2c(c1)CN(C1CCC(=O)NC1=O)C2=O (stereo not shown)	> 1 µM

Form field: reported DC50 of C[C@H]1CN(C(=O)Nc2ccc3c(c2)CN(C2CCC(=O)NC2=O)C3=O)c2ccccc21 (stereo partly shown)
< 0.1 µM

Query (molecule): O=C1CCC(N2Cc3cc(NC(=O)N4CCc5c(F)cccc5C4)ccc3C2=O)C(=O)N1 (stereo not shown) ; field requested: DC50
< 0.1 µM

Query (molecule): O=C1CCC(N2Cc3cc(NC(=O)N4c5ccc(F)cc5CC45COC5)ccc3C2=O)C(=O)N1 (stereo not shown) ; field requested: DC50
< 0.1 µM

Quick one: DC50 for O=C1CCC(N2Cc3cc(NC(=O)N4c5ccccc5C[C@H]4COC(F)(F)F)ccc3C2=O)C(=O)N1 (stereo partly shown) ?
< 0.1 µM

What value of DC50 has been recorded for this entry: CC1(C)CN(C(=O)Nc2ccc3c(c2)CN(C2CCC(=O)NC2=O)C3=O)Cc2ccccc21 (stereo not shown)
< 0.1 µM

Fill in the blank: the reported DC50 of O=C1CCC(N2Cc3cc(NC(=O)N4CC(c5ccc(F)cc5)C4)ccc3C2=O)C(=O)N1 (stereo not shown) is ____.
< 0.1 µM

Query (molecule): Cc1ccc2c(c1)N(C(=O)Nc1ccc3c(c1)CN(C1CCC(=O)NC1=O)C3=O)CC2 (stereo not shown) ; field requested: DC50
< 0.1 µM

Tell me the measured DC50 of O=C1CCC(N2Cc3cc(NC(=O)N4CCCC(C5CCC5)C4)ccc3C2=O)C(=O)N1 (stereo not shown) , please.
< 0.1 µM

What DC50 value was documented for this molecule, CC1(c2ccccc2F)CN(C(=O)Nc2ccc3c(c2)CN(C2CCC(=O)NC2=O)C3=O)C1 (stereo not shown) ?
0.1 to 1 µM

Give the measured DC50 of O=C1CCC(N2Cc3cc(NC(=O)N4CCN(c5cccnc5)CC4)ccc3C2=O)C(=O)N1 (stereo not shown) .
> 1 µM

Any idea what DC50 was measured for Cc1cccc2c1CCN2C(=O)Nc1ccc2c(c1)CN(C1CCC(=O)NC1=O)C2=O (stereo not shown) ?
< 0.1 µM

Return reported DC50; argument: C[C@@H]1Cc2ccccc2N1C(=O)Nc1ccc2c(c1F)CN(C1CCC(=O)NC1=O)C2=O (stereo partly shown)
< 0.1 µM

# get_value(readout='DC50', item= COCC1c2ccc(C(F)F)cc2CN1C(=O)Nc1ccc2c(c1)CN(C1CCC(=O)NC1=O)C2=O (stereo not shown) )
< 0.1 µM
